target: T1, Human NKp46 Fc tag (Acro Biosystems, NC1-H5257) (human, UniProt O76036 22-255); test: SPR Method 1 and/or 2
T1 construct: bought; also called Fc-tagged human NKp46
T1 sequence (O76036 22-255 limits assumed): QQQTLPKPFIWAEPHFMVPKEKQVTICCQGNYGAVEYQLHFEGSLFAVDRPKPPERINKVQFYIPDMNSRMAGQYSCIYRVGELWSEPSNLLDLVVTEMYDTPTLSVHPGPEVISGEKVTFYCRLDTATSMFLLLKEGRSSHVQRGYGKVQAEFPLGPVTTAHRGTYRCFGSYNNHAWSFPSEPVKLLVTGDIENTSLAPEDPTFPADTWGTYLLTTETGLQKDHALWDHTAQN
pKd: −log10 of the molar value. Numbered stars: 1 amine (or outer) side, 2 acyl side, 3 side chain; on linkers, the order of the positions; unused ones are H or OH. Bridge positions count the residues as written; N and C are the ends. Square brackets hold non-standard residues; d marks the D form. Ends that are not written are not given here. * marks the point of attachment. TATA = O=C(CC[*:1])N1CN(C(=O)CC[*:2])CN(C(=O)CC[*:3])C1; Trp(2-Me) = Cc1[nH]c2ccccc2c1C[C@H](N)C(=O)O; tBuAla = CC(C)(C)C[C@H](N)C(=O)O; Cba = N[C@@H](CC1CCC1)C(=O)O; Chg = N[C@H](C(=O)O)C1CCCCC1; Pen = CC(C)(S)[C@H](N)C(=O)O; Nle = CCCC[C@H](N)C(=O)O; Pent4ynoyl = C#CCCC(=O)*; Nva = CCC[C@H](N)C(=O)O
Label fulfilled when pKd >= 6; otherwise not fulfilled.

Please indicate if the recorded pKd for ACDLTTHNCQWG[Chg]CA-NH2 (linker 2-9-14 via TATA, scaffold TATA) [BCY18291] meets or exceeds 6.
not fulfilled

Same for ACNLQAPCMFTGKVCA-NH2 (linker 2-8-15 via TATA; also: scaffold TATA, TATB or TBMT, scaffold TATA) [BCY18317]
not fulfilled

Same for ACDLTTHNCQ[Trp(2-Me)]GICA-NH2 (linker 2-9-14 via TATA, scaffold TATA) [BCY19721]
fulfilled

Same for ACYLPDYLCGDEYCAK (C-terminal D-Lys(PYA), scaffold TATA) [BCY15452]
fulfilled

Same for Ac-CY[Cba]PDYL[Pen][dA]DEYC-NH2 (linker 1-8-13 via TATA, scaffold TATA) [BCY19690]
fulfilled

Same for ACYLPDYLCGDK(Pent4ynoyl)YCA-NH2 (linker 2-9-14 via TATA; N-terminus assumed; SMILES C#CCCC(=O)NCCCC[C@@H]1NC(=O)[C@H](CC(=O)O)NC(=O)CNC(=O)[C@@H]2CSCCC(=O)N3CN(CN(C3)C(=O)CCSC[C@@H](C(=O)N[C@@H](C)C(N)=O)NC(=O)[C@H](Cc3ccc(O)cc3)NC1=O)C(=O)CCSC[C@H](NC(=O)[C@H](C)N)C(=O)N[C@@H](Cc1ccc(O)cc1)C(=O)N[C@@H](CC(C)C)C(=O)N1CCC[C@H]1C(=O)N[C@@H](CC(=O)O)C(=O)N[C@@H](Cc1ccc(O)cc1)C(=O)N[C@@H](CC(C)C)C(=O)N2, scaffold TATA) [BCY16842]
not fulfilled

Same for ACNLQAPCM[Nva]TGKVCA-NH2 (linker 2-8-15 via TATA; N-terminus assumed; SMILES CCC[C@@H]1NC(=O)[C@H](CCSC)NC(=O)[C@@H]2CSCCC(=O)N3CN(CN(C3)C(=O)CCSC[C@@H](C(=O)N[C@@H](C)C(N)=O)NC(=O)[C@H](C(C)C)NC(=O)[C@H](CCCCN)NC(=O)CNC(=O)[C@H]([C@@H](C)O)NC1=O)C(=O)CCSC[C@H](NC(=O)[C@H](C)N)C(=O)N[C@@H](CC(N)=O)C(=O)N[C@@H](CC(C)C)C(=O)N[C@@H](CCC(N)=O)C(=O)N[C@@H](C)C(=O)N1CCC[C@H]1C(=O)N2, scaffold TATA) [BCY19704]
not fulfilled

Same for ACNLQAPC[Nle]LTGKVCA-NH2 (linker 2-8-15 via TATA, scaffold TATA) [BCY18314]
not fulfilled

Same for Ac-CY[Cba]PDYLC[dA]DEYC-NH2 (linker 1-8-13 via TATA, scaffold TATA) [BCY16133]
fulfilled

Same for ACDLTTHNCQWG[tBuAla]CA-NH2 (linker 2-9-14 via TATA, scaffold TATA) [BCY18290]
not fulfilled

Same for ACNLQAPCMLT[dA]KVCA-NH2 (linker 2-8-15 via TATA (inferred), scaffold TATA) [BCY18322]
fulfilled

Same for ACNLQA[Nva]CMLTGKVCA-NH2 (linker 2-8-15 via TATA; N-terminus assumed; SMILES CCC[C@@H]1NC(=O)[C@H](C)NC(=O)[C@H](CCC(N)=O)NC(=O)[C@H](CC(C)C)NC(=O)[C@H](CC(N)=O)NC(=O)[C@@H](NC(=O)[C@H](C)N)CSCCC(=O)N2CN3CN(C2)C(=O)CCSC[C@@H](C(=O)N[C@@H](C)C(N)=O)NC(=O)[C@H](C(C)C)NC(=O)[C@H](CCCCN)NC(=O)CNC(=O)[C@H]([C@@H](C)O)NC(=O)[C@H](CC(C)C)NC(=O)[C@H](CCSC)NC(=O)[C@H](CSCCC3=O)NC1=O, scaffold TATA) [BCY19710]
not fulfilled
